Data origin, for the record: patent US20240092784A1

target_entity: human SPR (Homo sapiens (Human))
Sequence (P35270 whole entry): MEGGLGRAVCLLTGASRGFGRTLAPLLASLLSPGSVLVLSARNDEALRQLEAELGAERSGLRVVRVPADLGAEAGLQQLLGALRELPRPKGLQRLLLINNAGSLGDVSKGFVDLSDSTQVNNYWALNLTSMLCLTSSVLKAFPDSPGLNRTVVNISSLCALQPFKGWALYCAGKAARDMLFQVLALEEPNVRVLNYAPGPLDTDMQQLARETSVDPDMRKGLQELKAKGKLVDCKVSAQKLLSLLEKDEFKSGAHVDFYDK
assay_overview: Evaluation Example 2: Measurement of human SPR inhibitory activity (seven concentrations, sepiapterin absorbance at 420 nm)
Assay type: biochemical
measurement_conditions: Evaluation Example 2, seven concentrations 0.14 nM to 100 nM, 240 minutes at room temperature, read-out: IC50
measured_endpoint: IC50 (nM)

{"molecule": "CC(C)Cn1c(=O)c(C(=O)NC2CC2)c(O)n2ncc(/C=C/C(=O)N3CCC(C(C)(C)O)CC3)c12", "target_entity": "human SPR (Homo sapiens (Human))", "unit_descriptor": "nM", "measured_result": 0.88}
{"molecule": "CC(C)Cn1c(=O)c(C(=O)NC2CC2)c(O)n2ncc(/C=C/C(=O)N3CCN(CC(F)(F)C(F)(F)F)CC3)c12", "target_entity": "human SPR (Homo sapiens (Human))", "unit_descriptor": "nM", "measured_result": 1.89}
{"molecule": "C[C@H]1COCCN1C(=O)/C=C/c1cnn2c(O)c(C(=O)NC3CC3)c(=O)n(CC3(F)CC3)c12 [Synthesis Example 379]", "target_entity": "human SPR (Homo sapiens (Human))", "unit_descriptor": "nM", "measured_result": 0.7}
{"molecule": "CC(C)Cn1c(=O)c(C(=O)NC2CC2)c(O)n2nc3[nH]ccc3c12 [Synthesis Example 399]", "target_entity": "human SPR (Homo sapiens (Human))", "unit_descriptor": "nM", "measured_result": 1.56}
{"molecule": "CC(=O)N1CCC(C)(/C=C/c2cnn3c(O)c(C(=O)NC4CC4)c(=O)n(CC(C)C)c23)CC1 [Synthesis Example 245]", "target_entity": "human SPR (Homo sapiens (Human))", "unit_descriptor": "nM", "measured_result": 1.08}
{"molecule": "CC(C)Cn1c(=O)c(C(=O)NC2CC2)c(O)n2ncc(/C=C/C(=O)N3CCCOCC3)c12", "target_entity": "human SPR (Homo sapiens (Human))", "unit_descriptor": "nM", "measured_result": 0.75}
{"molecule": "COC[C@@H]1COCCN1C(=O)/C=C/c1cnn2c(O)c(C(=O)NC3CC3)c(=O)n(CC(C)C)c12", "target_entity": "human SPR (Homo sapiens (Human))", "unit_descriptor": "nM", "measured_result": 0.55}
{"molecule": "O=C(NC1CC1)c1c(O)n2ncc(/C=C/C(=O)N3CCOCC3)c2n(CC2CCC2)c1=O [Synthesis Example 381]", "target_entity": "human SPR (Homo sapiens (Human))", "unit_descriptor": "nM", "measured_result": 0.71}
{"molecule": "CC(C)Cn1c(=O)c(C(=O)NC2CC2)c(O)n2ncc(/C=C/C(=O)N3CCCC3)c12", "target_entity": "human SPR (Homo sapiens (Human))", "unit_descriptor": "nM", "measured_result": 0.83}
{"molecule": "CC(C)Cn1c(=O)c(C(=O)NC2CC2)c(O)n2ncc(/C=C/C(=O)N3CC[C@H](C(N)=O)C3)c12", "target_entity": "human SPR (Homo sapiens (Human))", "unit_descriptor": "nM", "measured_result": 0.69}
{"molecule": "O=C(NC1CC1)c1c(O)n2ncc(/C=C/C(=O)N3C[C@H]4C[C@@H]3CO4)c2n(CC2(F)CC2)c1=O [Synthesis Example 377]", "target_entity": "human SPR (Homo sapiens (Human))", "unit_descriptor": "nM", "measured_result": 0.78}
{"molecule": "Cc1nn2c(O)c(C(=O)NC3CC3)c(=O)n(CC(C)C)c2c1/C=C/C(=O)N1CCCC12CCOCC2 [Synthesis Example 631]", "target_entity": "human SPR (Homo sapiens (Human))", "unit_descriptor": "nM", "measured_result": 0.66}
{"molecule": "CC(C)(C)Cn1c(=O)c(C(=O)NC2CC2)c(O)n2nc(Nc3cncc(C(F)(F)F)n3)cc12 [Synthesis Example 331]", "target_entity": "human SPR (Homo sapiens (Human))", "unit_descriptor": "nM", "measured_result": 1.71}
{"molecule": "CC(C)Cn1c(=O)c(C(=O)NC2CC2)c(O)n2ncc(C(=O)NCc3ccc(C#N)cc3)c12 [Synthesis Example 232]", "target_entity": "human SPR (Homo sapiens (Human))", "unit_descriptor": "nM", "measured_result": 1.25}
